All values here come from patent US20250304560A1.

target: NLRP3 inflammasome (Homo sapiens, UniProt Q96P20); assay: NLRP3 inflammasome activation in THP1 macrophages, IL-1β AlphaLISA
Sequence (Q96P20 whole entry): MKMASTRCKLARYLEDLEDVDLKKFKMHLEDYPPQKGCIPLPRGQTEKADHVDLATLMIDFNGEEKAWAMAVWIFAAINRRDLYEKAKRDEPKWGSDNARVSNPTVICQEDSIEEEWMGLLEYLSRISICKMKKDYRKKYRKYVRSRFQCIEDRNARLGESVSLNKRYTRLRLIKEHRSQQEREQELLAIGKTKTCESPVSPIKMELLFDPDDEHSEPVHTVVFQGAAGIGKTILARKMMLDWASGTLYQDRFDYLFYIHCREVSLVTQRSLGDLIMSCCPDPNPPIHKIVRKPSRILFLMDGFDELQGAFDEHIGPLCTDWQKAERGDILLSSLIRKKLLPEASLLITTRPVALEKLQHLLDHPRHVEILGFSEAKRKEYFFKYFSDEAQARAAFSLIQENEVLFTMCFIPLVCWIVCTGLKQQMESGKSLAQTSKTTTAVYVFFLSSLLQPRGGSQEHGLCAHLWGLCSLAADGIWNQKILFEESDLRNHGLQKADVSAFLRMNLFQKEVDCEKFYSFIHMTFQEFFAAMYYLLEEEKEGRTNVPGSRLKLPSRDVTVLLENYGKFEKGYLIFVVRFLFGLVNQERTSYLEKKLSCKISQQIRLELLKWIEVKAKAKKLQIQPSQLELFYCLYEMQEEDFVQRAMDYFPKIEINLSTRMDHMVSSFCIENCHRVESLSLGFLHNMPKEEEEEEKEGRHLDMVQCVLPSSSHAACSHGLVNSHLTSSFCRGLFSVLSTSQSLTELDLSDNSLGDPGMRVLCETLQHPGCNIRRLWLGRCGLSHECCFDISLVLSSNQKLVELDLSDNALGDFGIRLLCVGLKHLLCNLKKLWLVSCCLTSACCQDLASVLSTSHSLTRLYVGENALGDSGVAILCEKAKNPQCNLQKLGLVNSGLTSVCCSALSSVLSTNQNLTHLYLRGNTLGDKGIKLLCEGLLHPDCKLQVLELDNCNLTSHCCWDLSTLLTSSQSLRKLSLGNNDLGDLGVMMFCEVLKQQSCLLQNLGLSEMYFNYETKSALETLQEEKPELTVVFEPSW
Quantity name: IL-1ß activity (in words)

- Compound: "Cc1ccc(-c2nnc(N[C@@H]3CCCN(C)C3)cc2C)c(O)c1 [C, reference compound]"
  Target under test: "NLRP3 inflammasome (Homo sapiens, UniProt Q96P20)"
  Quantity name: "IL-1ß activity (in words)"
  Result: "potent"
- Compound: "Cc1cc(N[C@@H]2CCCN(C)C2)nnc1-c1ccc(C#N)cc1O"
  Target under test: "NLRP3 inflammasome (Homo sapiens, UniProt Q96P20)"
  Quantity name: "IL-1ß activity (in words)"
  Result: "potent"
- Compound: "Cc1cc(N[C@@H]2CCCN(C)C2)nnc1-c1ccccc1O"
  Target under test: "NLRP3 inflammasome (Homo sapiens, UniProt Q96P20)"
  Quantity name: "IL-1ß activity (in words)"
  Result: "potent"
- Compound: "Cc1cccc(O)c1-c1ccc(N(C)[C@@H]2CCCN(C)C2)nn1"
  Target under test: "NLRP3 inflammasome (Homo sapiens, UniProt Q96P20)"
  Quantity name: "IL-1ß activity (in words)"
  Result: "potent"

--- query ---
Asked: Look up IL-1ß activity (in words) for this compound: Cc1cc(F)cc(O)c1-c1ccc(N(C)[C@@H]2CCCN(C)C2)nn1
Given back: potent

---

target: NLRP3 inflammasome (Homo sapiens); test: NLRP3 inflammasome activation in THP1 macrophages, IL-1β AlphaLISA
Quantity name: IC50

// below: answered compounds
- Compound: "Cc1cc(NCC2CCOCC2)nnc1-c1ccccc1O"
  IC50: "> 1000 nM"
- Compound: "Cc1cc(C2CC2)cc(O)c1-c1ccc(N[C@@H]2CCCN(C)C2)nn1"
  IC50: "1 to 10 nM"
- Compound: "CN1CC[C@@H](N(C)c2ccc(-c3ccc(F)cc3O)nn2)C1"
  IC50: "> 1000 nM"
- Compound: "Cc1cc(-c2ccccc2O)nnc1O[C@@H]1CCCN(C)C1"
  IC50: "> 1000 nM"
- Compound: "Cc1cc(NC[C@H]2CCCO2)nnc1-c1ccccc1O"
  IC50: "> 1000 nM"
- Compound: "Cc1cc(O[C@@H]2CCCN(C)C2)nnc1-c1ccc(C#N)cc1O"
  IC50: "100 to 500 nM"
- Compound: "Cc1cc(CC2CCCN(C)C2)nnc1-c1ccc(C#N)cc1O (stereo not drawn)"
  IC50: "100 to 500 nM"
- Compound: "Cc1cc(C[C@H]2CCCN(C)C2)nnc1-c1ccc(F)cc1O"
  IC50: "> 1000 nM"

Asked: Recorded IC50 of Cc1cc(NC[C@@H]2CCCN2C)nnc1-c1ccccc1O , please.
Given back: > 1000 nM

---

molecular target: NLRP3 inflammasome (Homo sapiens); assay: NLRP3 inflammasome activation in THP1 macrophages, IL-1β AlphaLISA; conditions: IL-1β Activity (nM), THP1 macrophages, PMA, LPS priming, nigericin 6.7 uM activation
Quantity name: IC50

Asked: Item under review: Cc1cc(-c2ccc(F)cc2O)nnc1N[C@@H]1CCCN(CCF)C1 . Reported IC50?
Given back: 500 to 1000 nM

Asked: Look up IC50: CN1CCC[C@@H](N(C)c2ccc(-c3ccc(F)cc3O)nn2)C1
Given back: > 1000 nM

Asked: For Cc1cc(-c2ccccc2O)nnc1N[C@@H]1CCCN(C)C1 , what is its reported IC50?
Given back: 1 to 10 nM

Asked: Which IC50 reading was recorded for the compound Cc1ccc(O)c(-c2ccc(N[C@@H]3CCCN(C)C3)nn2)c1 ?
Given back: 100 to 500 nM

---

Target: hERG channels (Homo sapiens)
Construct: host or cells: CHO-hERG cells
Sequence (Q12809 whole entry): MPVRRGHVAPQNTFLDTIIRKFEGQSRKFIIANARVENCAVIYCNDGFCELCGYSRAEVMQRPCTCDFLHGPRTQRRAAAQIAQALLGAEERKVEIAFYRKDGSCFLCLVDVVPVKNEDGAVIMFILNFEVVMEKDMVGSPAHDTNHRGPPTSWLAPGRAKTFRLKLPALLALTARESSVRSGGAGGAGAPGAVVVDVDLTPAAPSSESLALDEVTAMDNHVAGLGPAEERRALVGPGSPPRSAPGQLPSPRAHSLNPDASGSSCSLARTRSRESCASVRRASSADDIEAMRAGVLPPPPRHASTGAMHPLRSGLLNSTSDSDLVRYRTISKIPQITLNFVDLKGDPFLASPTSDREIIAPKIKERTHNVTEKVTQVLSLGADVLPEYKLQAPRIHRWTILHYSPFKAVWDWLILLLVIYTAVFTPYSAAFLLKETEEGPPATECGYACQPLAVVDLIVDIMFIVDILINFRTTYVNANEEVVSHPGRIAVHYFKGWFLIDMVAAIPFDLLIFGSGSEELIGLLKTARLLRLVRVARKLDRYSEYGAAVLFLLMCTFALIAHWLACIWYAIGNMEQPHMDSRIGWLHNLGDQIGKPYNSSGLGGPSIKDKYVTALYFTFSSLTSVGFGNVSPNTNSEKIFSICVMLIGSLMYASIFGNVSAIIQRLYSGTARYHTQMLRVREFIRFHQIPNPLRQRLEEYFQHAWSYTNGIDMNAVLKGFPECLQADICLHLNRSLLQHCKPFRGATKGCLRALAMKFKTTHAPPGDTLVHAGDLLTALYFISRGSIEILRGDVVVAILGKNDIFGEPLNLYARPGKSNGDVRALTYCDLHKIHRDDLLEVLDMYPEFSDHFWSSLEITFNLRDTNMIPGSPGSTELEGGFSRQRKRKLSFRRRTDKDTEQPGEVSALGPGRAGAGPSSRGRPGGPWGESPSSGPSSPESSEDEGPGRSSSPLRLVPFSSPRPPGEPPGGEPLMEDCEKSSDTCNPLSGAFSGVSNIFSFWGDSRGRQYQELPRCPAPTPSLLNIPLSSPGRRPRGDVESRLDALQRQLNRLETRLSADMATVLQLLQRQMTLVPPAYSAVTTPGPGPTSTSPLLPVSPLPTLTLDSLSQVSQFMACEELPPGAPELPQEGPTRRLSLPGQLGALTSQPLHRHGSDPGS
Assay: hERG assay, whole-cell patch-clamp in CHO-hERG cells
Format: cell-based
Conditions: whole-cell patch-clamp, CHO-hERG cells, 33.0-37.0 °C; Table 10
Method: CHO-hERG cells (Sophion Biosciences (Ballerup, Denmark), subcultured and frozen in WuXi AppTec (Suzhou) Co., Ltd.), stored in liquid nitrogen, were tested and determined to be free from mycoplasma contamination. Cells were not used after the 30th passage. […] Exponentially growing CHO-hERG cells were collected and suspended in extracellular solution for use. The hERG current was recorded at physiological temperature (33.0° C. to 37.0° C.) using whole-cell patch-clamp techniques. […]
pIC50: −log10 of the molar value.
Documented pIC50 across a set of compounds

Here are 5 compounds together with their reported answers.
- Compound: "Cc1cc(N[C@@H]2CCCN(C)C2)nnc1-c1ccc(C#N)cc1O [compound 51]"
  pIC50: "< 4.52"
- Compound: "Cc1cccc(O)c1-c1ccc(N(C)[C@@H]2CCCN(C)C2)nn1 [compound 21]"
  pIC50: "< 4.52"
- Compound: "Cc1cc(F)cc(O)c1-c1ccc(N(C)[C@@H]2CCCN(C)C2)nn1 [compound 22]"
  pIC50: "< 4.52"
- Compound: "Cc1cc(O[C@@H]2CCCN(C)C2)nnc1-c1ccc(F)cc1O [compound 34]"
  pIC50: "< 4.52"
- Compound: "Cc1cc(N[C@@H]2CCCN(C)C2)nnc1-c1cccc(C)c1O [compound 67]"
  pIC50: "4.70 to 5.00"

Asked: # returns recorded pIC50 (system: hERG channels (Homo sapiens)) for Cc1cc(N[C@@H]2CCCN(C)C2)nnc1-c1ccc(C2CC2)cc1O [compound 3]
Given back: 5.00 to 5.52

Asked: Provide value of pIC50 for this record tested with hERG channels (Homo sapiens): CCc1ccc(-c2nnc(N[C@@H]3CCCN(C)C3)cc2C)c(O)c1 [compound 15]
Given back: 5.00 to 5.52

Asked: Missing value: pIC50, hERG channels (Homo sapiens), entry Cc1cc(N[C@@H]2CCCN(C)C2)nnc1-c1ccccc1O [compound 2] . Fill in?
Given back: < 4.52

Asked: What is its pIC50 for hERG channels (Homo sapiens)? Entry: Cc1cccc(O)c1-c1ccc(N[C@@H]2CCCN(C)C2)nn1 [compound 7]
Given back: < 4.52

Asked: Find pIC50 (hERG channels (Homo sapiens)) for the entry Cc1cc(N[C@@H]2CCCN(C)C2)nnc1-c1ccc(F)cc1O [compound 1]
Given back: 4.52 to 4.70

---

molecular target: hERG channels (Homo sapiens); construct: host or cells: CHO-hERG cells; test: hERG assay, whole-cell patch-clamp in CHO-hERG cells; format: cell-based
Quantity name: hERG inhibition (in words)

- Molecule: "Cc1cc(N[C@@H]2CCCN(C)C2)nnc1-c1ccc(C(F)(F)F)cc1O [A, reference compound]"
  Quantity name: "hERG inhibition (in words)"
  Result: "high"
- Molecule: "Cc1ccc(-c2nnc(N[C@@H]3CCCN(C)C3)cc2C)c(O)c1 [C, reference compound]"
  Quantity name: "hERG inhibition (in words)"
  Result: "high"
- Molecule: "Cc1cc(N[C@@H]2CCCN(C)C2)nnc1-c1ccc(Cl)cc1O [D, reference compound]"
  Quantity name: "hERG inhibition (in words)"
  Result: "high"
- Molecule: "Cc1cc(N[C@@H]2CCCN(C)C2)nnc1-c1ccc(C2CC2)cc1O"
  Quantity name: "hERG inhibition (in words)"
  Result: "high"
- Molecule: "CCc1ccc(-c2nnc(N[C@@H]3CCCN(C)C3)cc2C)c(O)c1"
  Quantity name: "hERG inhibition (in words)"
  Result: "high"
- Molecule: "Cc1cccc(O)c1-c1ccc(N(C)[C@@H]2CCCN(C)C2)nn1"
  Quantity name: "hERG inhibition (in words)"
  Result: "unexpectedly low"

Asked: Field request: hERG inhibition (in words) | item: Cc1cc(F)cc(O)c1-c1ccc(N(C)[C@@H]2CCCN(C)C2)nn1
Given back: unexpectedly low

Asked: Quick one: hERG inhibition (in words) of Cc1cc(N[C@@H]2CCCN(C)C2)nnc1-c1ccc(C#N)cc1O ?
Given back: unexpectedly low

Asked: State the recorded hERG inhibition (in words) for this entry: Cc1cc(N[C@@H]2CCCN(C)C2)nnc1-c1ccccc1O
Given back: unexpectedly low

Asked: Request the reported hERG inhibition (in words) associated with Cc1cc(N[C@@H]2CCCN(C)C2)nnc1-c1ccc(OC(F)(F)F)cc1O [B, reference compound]
Given back: high

---

target: hERG channels (Homo sapiens); construct: host or cells: CHO-hERG cells; assay: hERG assay, whole-cell patch-clamp in CHO-hERG cells; assay type: cell-based; settings: whole-cell patch-clamp, CHO-hERG cells; Table 11 comparison
pIC50: −log10 of the molar value.
The following compounds are listed with their measured pIC50 values.

Guide cases for pIC50, answers given:
- Compound: "Cc1cc(F)cc(O)c1-c1ccc(N(C)[C@@H]2CCCN(C)C2)nn1"
  pIC50: "< 4.52"
- Compound: "Cc1cc(N[C@@H]2CCCN(C)C2)nnc1-c1ccc(Cl)cc1O [D, reference compound]"
  pIC50: "5.00 to 5.52"
- Compound: "Cc1cc(N[C@@H]2CCCN(C)C2)nnc1-c1ccc(OC(F)(F)F)cc1O [B, reference compound]"
  pIC50: "5.52 to 6.00"
- Compound: "Cc1cc(N[C@@H]2CCCN(C)C2)nnc1-c1ccccc1O"
  pIC50: "< 4.52"
- Compound: "Cc1cccc(O)c1-c1ccc(N(C)[C@@H]2CCCN(C)C2)nn1"
  pIC50: "< 4.52"
- Compound: "Cc1cc(N[C@@H]2CCCN(C)C2)nnc1-c1ccc(C(F)(F)F)cc1O [A, reference compound]"
  pIC50: "≥ 6.00"
- Compound: "Cc1ccc(-c2nnc(N[C@@H]3CCCN(C)C3)cc2C)c(O)c1 [C, reference compound]"
  pIC50: "4.70 to 5.00"
- Compound: "CCc1ccc(-c2nnc(N[C@@H]3CCCN(C)C3)cc2C)c(O)c1"
  pIC50: "5.00 to 5.52"

Asked: Report pIC50 for Cc1cc(N[C@@H]2CCCN(C)C2)nnc1-c1ccc(C#N)cc1O tested on hERG channels (Homo sapiens).
Given back: < 4.52

Asked: Give pIC50 (hERG channels (Homo sapiens)) of the following compound: Cc1cc(N[C@@H]2CCCN(C)C2)nnc1-c1ccc(C2CC2)cc1O
Given back: 5.00 to 5.52
